Give measured Inh. (%) (Inhibition) for each item. Keep answers brief.
# target: HCV NS3 helicase NS3h_1b(con1) (Hepatitis C virus genotype 1b, UniProt Q9WMX2)
# Construct: truncated C-terminally His-tagged NS3 proteins lacking the N-terminal protease, called NS3h; His-tag (C); made in house
# Sequence (Q9WMX2 1192-1657): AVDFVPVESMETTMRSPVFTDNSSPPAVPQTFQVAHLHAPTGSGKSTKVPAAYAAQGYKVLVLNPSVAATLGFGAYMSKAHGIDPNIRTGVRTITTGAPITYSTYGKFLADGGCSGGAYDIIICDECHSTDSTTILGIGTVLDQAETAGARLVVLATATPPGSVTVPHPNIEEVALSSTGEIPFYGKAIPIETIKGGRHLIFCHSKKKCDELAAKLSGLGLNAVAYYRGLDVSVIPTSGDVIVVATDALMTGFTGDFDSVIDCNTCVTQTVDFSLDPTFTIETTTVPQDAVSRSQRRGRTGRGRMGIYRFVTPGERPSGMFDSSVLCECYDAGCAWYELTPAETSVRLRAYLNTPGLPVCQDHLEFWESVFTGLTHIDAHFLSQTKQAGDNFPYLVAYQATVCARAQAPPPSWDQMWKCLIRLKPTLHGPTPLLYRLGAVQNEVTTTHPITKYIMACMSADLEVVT
# assay protocol: MBHA screen of NCI mechanistic set library at 20 μM (percent inhibition, compound interference)
# Format: biochemical
# condition context: compounds at 20 μM, MBHA with DNA substrate; calculated from Equation 1
// note: answer is a bare numeric in %

Q) Can you look up the measured Inh. (%) (Inhibition) of `Nc1nc(N)c2cc(Sc3cccc(C(F)(F)F)c3)ccc2n1` for me?
A) 28.4

Q) How about this compound: `C[n+]1cc2cc(O)c(O)cc2c2ccc3cc(O)c(O)cc3c21.Cl.[Cl-].c1ccncc1`
A) 27.4

Q) How about this compound: `CC1(C)NC(=O)N(CCCCCCN2C(=O)NC(C)(C)C2=O)C1=O`
A) −7.3

Q) How about this compound: `O=[N+]([O-])c1cccc2nc3ccccc3c(NCCCNc3c4ccccc4nc4cccc([N+](=O)[O-])c34)c12`
A) −10.3

* * *

Give measured EC50 for each item. Keep answers brief.
# target: E. coli SSB-Cy5-dT15 complex (Escherichia coli, UniProt P0AGE0)
# Construct: purchased Promega
# Sequence (P0AGE0 2-178, one chain of several): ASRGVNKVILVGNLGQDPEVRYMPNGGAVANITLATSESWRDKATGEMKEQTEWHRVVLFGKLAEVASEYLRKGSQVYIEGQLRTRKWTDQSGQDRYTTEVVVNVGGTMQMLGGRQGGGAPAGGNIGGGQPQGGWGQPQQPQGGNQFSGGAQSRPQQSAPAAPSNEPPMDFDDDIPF
# assay protocol: Escherichia coli SSB Cy5-dT15 binding assay (fluorescence polarization)
Please make sure the unit comes right after the number.

Q) Request: EC50, test system E. coli SSB-Cy5-dT15 complex (Escherichia coli, UniProt P0AGE0), entry `COc1ccc(C(=O)Nc2ccc(-c3nc4ccc(-c5nc6ccc(C)c(S(=O)(=O)O)c6s5)cc4s3)cc2)cc1`
A) 2 µM

Q) How about this compound: `Cc1ccc2nc(-c3ccc4nc(-c5ccc(NC(=O)c6ccc(Cl)cc6)cc5)sc4c3)sc2c1S(=O)(=O)O`
A) 46 µM

* * *

Give measured Inh. (%) (Inhibition) for each item. Keep answers brief.
# target: HCV NS3 helicase NS3h_1b(con1) (Hepatitis C virus genotype 1b, UniProt Q9WMX2)
# Construct: truncated C-terminally His-tagged NS3 proteins lacking the N-terminal protease, called NS3h; His-tag (C); made in house
# assay protocol: MBHA screen of NCI mechanistic set library at 20 μM (percent inhibition, compound interference)
# Type: biochemical
# condition context: compounds at 20 μM, MBHA with DNA substrate; calculated from Equation 1

Q) Request: Inh. (%) (Inhibition), test system HCV NS3 helicase NS3h_1b(con1) (Hepatitis C virus genotype 1b, UniProt Q9WMX2), entry COc1ccc(S(=O)(=O)N/N=C/C(=O)O)cc1 [Compound 267213]
A) 2.9%

Q) How about this compound: COC(=O)c1[nH]c(=S)[nH]c(=O)c1-c1ccc(Cl)cc1 [Compound 635140]
A) 4.6%

Q) How about this compound: CC(=O)OC[C@H]1O[C@@H](NC(=O)N(CCCl)N=O)[C@H](OC(C)=O)[C@@H](OC(C)=O)[C@@H]1OC(C)=O [Compound 245432]
A) 37.4%

Q) How about this compound: Nc1nc(SCCc2ccccc2)c2[nH]cnc2n1 [Compound 35866]
A) 15.3%

* * *

# target: HCV NS3 helicase NS3h_1b(con1) (Hepatitis C virus genotype 1b, UniProt Q9WMX2)
# Construct: truncated C-terminally His-tagged NS3 proteins lacking the N-terminal protease, called NS3h; His-tag (C); made in house
# assay protocol: biochemical
# Type: biochemical, hepatitis C virus genotype 1b(con1)
# condition context: standard HCV helicase MBHA (Table 9); read-out: DNA Unwinding IC50
property measured: pIC50
Recall that pIC50 is obtained by taking minus log10 of the concentration measured in molar.

Q) Can you look up the measured pIC50 of `CCN(CC)c1ccc(-c2nc3ccc(-c4nc5ccc(C)c(S(=O)(=O)O)c5s4)cc3s2)cc1` for me?
A) 5.30

Q) How about this compound: `Cc1ccc2nc(-c3ccc4nc(-c5ccc(NC(=O)Nc6ccccc6)cc5)sc4c3)sc2c1S(=O)(=O)O.N`
A) 5.40

Q) How about this compound: `Cc1ccc2nc(-c3ccc4nc(-c5ccc(NC(=O)c6ccc(NC(=O)OCC7c8ccccc8-c8ccccc87)cc6)cc5)sc4c3)sc2c1S(=O)(=O)O`
A) 5.30

Q) How about this compound: `Cc1ccc2nc(-c3ccc4nc(-c5ccc(NC(=O)c6cc(C(F)(F)F)ccc6F)cc5)sc4c3)sc2c1S(=O)(=O)O`
A) 5.22

Q) How about this compound: `Cc1ccc2nc(-c3ccc(NC(=O)c4ccc(NC(=O)c5ccc(N)cc5)cc4)cc3)sc2c1S(=O)(=O)O.N`
A) 4.54

Q) How about this compound: `Cc1ccc2nc(-c3ccc4nc(-c5ccc(NC(=O)c6ccc(CNC(=O)OCC7c8ccccc8-c8ccccc87)cc6)cc5)sc4c3)sc2c1S(=O)(=O)O.N`
A) 5.40
